- Tested on: platelet agglutination (PRP, plasma rich in platelet)
- Protocol Notes: Change of agglutination-inhibition rate with incubation time, fat emulsions (evaluated indirectly via c-AMP content in the platelets)
- Format: cell-based, Wistar-strain male rats
- Design: concentration or dose not given beside the values
- Condition Info: incubation 5 minutes; compounds in fat emulsion, sodium salt of prostaglandin I2 in aq. solution
Counter-ions that a name gives are not always drawn.
Answer each item with its documented agglutination-inhibition rate, incubation time 5 minutes.
Reply with a number, then the unit it belongs to.

Q: What agglutination-inhibition rate, incubation time 5 minutes value was documented for this molecule, CCCCCC(O)C=CC1C(O)CC2OC(=CCCCC(=O)OCC(=O)OCCCC)CC21 (stereo not shown) [Compound 1] ?
Ans: 11%

Q: Consider next the molecule CCCCCC(=O)OC(C)OC(=O)CCCC=C1CC2C(CC(O)C2C=CC(O)CCCCC)O1 (stereo not shown) [Compound 3] in the same way.
Ans: 71%

Q: Consider next the molecule CCCCCC(O)C=CC1C(O)CC2OC(=CCCCC(=O)OCOC(=O)C(C)(C)C)CC21 (stereo not shown) [Compound 2, Pivaloyloxymethyl prostaglandin I2 ester] in the same way.
Ans: 78%

Q: Consider next the molecule CCCCC[C@H](O)/C=C/[C@@H]1[C@H]2C/C(=C/CCCC(=O)O)O[C@H]2C[C@H]1O [Sodium salt of prostaglandin I2, reference compound] in the same way.
Ans: 17%
